Tested on: Bacillus subtilis
Assay: cleaved RNA product abundance (RNA/gDNA barcode ratio) relative to median wild-type variant (ratio to wild type); higher = more accumulation of the downstream cleavage product
Details: experiment (reporter, strain, medium): exp 6: tetM reporter, strain 168; cleavage site: cggR-gapA (positions -7 to +36 mutated)
For each of the sequences below, state its cleaved RNA product abundance.

Could you tell me which cleaved RNA product abundance is on file for ACAGACGAAGGAGCCGCAAAGAAGTTATTAAGGGATGAACAATCCCTCAATATAAATATCTCTCACTTATTTAAA ? 0.875

Bench note: what cleaved RNA product abundance did ACAGACGAAGGAGCCGCAAAAAAGTTATTAAGGGATGAATAATCTCTCAATATAAATATCTCTCACTTATTTAAA show? 0.897

Sample ACAGACGAAGGAGCCGGAAAGAAGTTATTAAGGGATGAATAATCCCTCAATATAAATATCTCTCACTTATTTAAA — what was its cleaved RNA product abundance? 0.897

---

System: Bacillus subtilis
Assay: cleaved RNA product abundance (RNA/gDNA barcode ratio) relative to median wild-type variant (ratio to wild type); higher = more accumulation of the downstream cleavage product
Conditions: experiment (reporter, strain, medium): exp 8a: truncated aprE reporter, strain BJT201 with 2% xylose (RNase J1 expressed); cleavage site: glnRA (positions -5 to +31 mutated)
Readout kind: cleaved RNA product abundance
// keep it numeric: no unit symbol after the value

Recorded cleaved RNA product abundance of CGACATGTCCCGCTTCTTTCATTACTCCGTTAGCAACTGTTTTGCTATATACATTTACGTTTTAAGAGGAGGAAT , please. 0.893

Would you kindly share the measured cleaved RNA product abundance for CGACATGTCCCGCTTCTTTCATTAATTCGTTAGCAACTGTTTTGCTATATATATTTACCTTTTAAGAGGAGGAAT ? 1.55

cleaved RNA product abundance lookup needed for CGACATGTCCCGCTTCTTTCATTAATCCGTTAGCAACTGTTTTGCTATATACAGTTACGTTTTAAGAGGAGGAAT , thanks. 0.192

Recorded cleaved RNA product abundance of CGACATGTCCCGCTTCTTTCATTAATCCGTTAGCAACTGTTTTGCTATTTAAATTTACCTTTTAAGAGGAGGAAT , please. 0.144

So what does the record say about cleaved RNA product abundance for CGACATGTCCCGCTTCTTTCATTAATCCGTTAGCAACTGTTTTGCTATATACATTAACCTTTTAAGAGGAGGAAT ? 1.37

What value of measured cleaved RNA product abundance is listed for CGACATGTCCCGCTTCTTTCATTAATCCGTTAACAACTGTTTTCCTATATACATTTACCTTTTAAGAGGAGGAAT ? 0.263

Tell me the measured cleaved RNA product abundance of CGACATGTCCCGCTTCTTTCATTAATCCGTTAACAACTGTTTTGCTATATACATTTACCATTTAAGAGGAGGAAT , please. 0.176

Dear colleague, I am looking for the recorded cleaved RNA product abundance of the following sequence: CGACATGTCCCGCTTCTTTCATTATTCTGTTAGCAACTGTTTAGCTATATACATTTACCTTTTAAGAGGAGGAAT 0.759

Param item = CGACATGTCCCGCTTCTTTCATTAATCCGTTAGCAACTGTTTTGATATAAACATTTACCTTTTAAGAGGAGGAAT ; retrieve measured cleaved RNA product abundance. 0.399

Which cleaved RNA product abundance reading was recorded for the sequence CGACATGTCCCGCTTCTTTCATTAATCCGTTAGAAACTGTTTTGCTAGATACATTTACCTTTTAAGAGGAGGAAT ? 0.255

Quick one: cleaved RNA product abundance for CGACATGTCCCGCTTCTTTCATTAATACGTTAGCAACTGTTTTGCTATATAGATTTACCTTTTAAGAGGAGGAAT ? 0.956

// cleaved RNA product abundance lookup, key: CGACATGTCCCGCTTCTTTCATTACTCCGTTAGCAACTGTTTGGCTATATACATTTACCTTTTAAGAGGAGGAAT 0.644

Fill blank: measured cleaved RNA product abundance of the sequence CGACATGTCCCGCTTCTTTCATTAATCCGTTAGCAACTGTTTTGCTATATACATTTATGTTTTAAGAGGAGGAAT is ____. 0.888

Sample CGACATGTCCCGCTTCTTTCATTAATCCGTTAGCATCTGTTTTGCTATATACATTTACATTTTAAGAGGAGGAAT — what was its cleaved RNA product abundance? 1.1

For the sequence shown here, CGACATGTCCCGCTTCTTTCATTAATCCGTTAACAACTGTTTTGCCATATACATTTACCTTTTAAGAGGAGGAAT , give the reported cleaved RNA product abundance. 0.114

Recorded cleaved RNA product abundance of CGACATGTCCCGCTTCTTTCATTAATCCGTAAGCAACTGTTTTGCTATATACATTTACCTTTTAAGAGGAGGAAT , please. 0.434

I am curious: what cleaved RNA product abundance value has been reported for CGACATGTCCCGCTTCTTTCATTAATCCATTAGCAACTGTTTTGATATATACAGTTACCTTTTAAGAGGAGGAAT ? 0.247

GET /values?readout=cleaved RNA product abundance&item= CGACATGTCCCGCTTCTTTCATTAATCGGTTAGCAACAGTTTTGCTATATACATTTACCTTTTAAGAGGAGGAAT 0.927

Reported cleaved RNA product abundance for CGACATGTCCCGCTTCTTTCATTAATCCGTTAGCAACTGTTTTGCTATATACAACTACCTTTTAAGAGGAGGAAT : what is it? 1.12

Dear colleague, I am looking for the recorded cleaved RNA product abundance of the following sequence: CGACATGTCCCGCTTCTTTCATTAATCCGTTAGCAACTGTTTTGCAATATACATTTAGCTTTTAAGAGGAGGAAT 0.72

Name the recorded cleaved RNA product abundance for CGACATGTCCCGCTTCTTTCATTACTCCGTTAACAACTGTTTTGCTATATACATTTACCTTTTAAGAGGAGGAAT . 0.261

State the recorded cleaved RNA product abundance for this entry: CGACATGTCCCGCTTCTTTCATTAATCCGTTACCAACTGTTTTGCTAAATACATTTACCTTTTAAGAGGAGGAAT 0.169
